# Tested on: DU-145 prostate
# Assay: NCI-60 one-dose screen, 48 h
# Test Context: 10 µM unless noted
This is part of a sample that, as a whole, favours compounds with a hit. Of some 83,000 tested, about 20% had one in any assay. Calls of active or inactive are those of the source. The calls were made as follows: active = growth percent below 10; inactive = the rest.
Respond with a class label; see label 1 (active), label 0 (inactive)

// below: answered compounds
{"Smiles String": "C/C(Cc1ccc(Cl)cc1)=C(\\c1ccc(OCCCN(C)C)cc1)c1ccc(OC(=O)Cc2ccccc2)cc1", "Discrete Label": "label 0"}
{"Smiles String": "COc1ccc(-c2nc(-c3cn(C)c4ncccc34)cs2)cc1", "Discrete Label": "label 0"}
{"Smiles String": "Cc1ccc(N2C(=O)CCC2=O)cc1", "Discrete Label": "label 0"}
{"Smiles String": "Cc1ccc(C(=O)c2ccc(CC(=O)N=Nc3c(O)[nH]c4ccc(Br)cc34)n2C)cc1", "Discrete Label": "label 0"}
{"Smiles String": "O=C(NNC(=O)c1ccc(NC(=O)c2ccccn2)cc1)Nc1ccc2ccccc2c1", "Discrete Label": "label 0"}
{"Smiles String": "Cn1c(=O)c2[nH]c(SCC(=O)Nc3ccc(C(=O)/C=C/c4ccccc4Cl)cc3)nc2n(C)c1=O", "Discrete Label": "label 0"}
{"Smiles String": "O=C(/C=C/c1ccc(Oc2ccc(Br)cc2)cc1)c1ccc(Br)cc1", "Discrete Label": "label 0"}
{"Smiles String": "O=C(O)COc1ccc(Cl)c(Cl)c1", "Discrete Label": "label 0"}
{"Smiles String": "O=C1C(Nc2ccccn2)=C(I)C(=O)c2ncccc21", "Discrete Label": "label 1"}
{"Smiles String": "O=C1Nc2ccccc2C1(c1c[nH]c2ccccc12)c1c[nH]c2ccccc12", "Discrete Label": "label 0"}

Kindly consider the entry below.
Input: Recorded call for `CCN(CC)c1ccc(CNc2cc(C)nc3ccccc23)cc1` ?
Output: label 0

Data provenance: PubChem BioAssay (NCI)
